experiment: Dog PK study #1 (Compound A IV and PO, propylene glycol formulation); type: in vivo, beagle dogs; conditions: beagle, dog, plasma, po, 5 mg/kg, oral 5 mg/kg, 1 h; mean; read-out: Average plasma concentration
recorded-metric: concentration at 1 h (ng/mL)
// return numeric value only (unit: ng/mL, not printed)

Query (compound): Cn1cc(-c2ccccc2)c(-c2cn(C)c(=O)c3[nH]c(-c4cnn(C(F)(F)F)c4)cc23)cc1=O ; field requested: concentration at 1 h 293

====

test: Dog PK study #3 (Compound A PO once daily 5 days, 5/10/20 mg/kg; PK, body weight, hematology); assay type: in vivo, beagle dogs; details: male, beagle, dog, plasma, po, 10 mg/kg, Day 1, 10 mg/kg dose PO; individual animals; read-out: MRT0-last
recorded-metric: MRT last (h)
Please give a number only; it is taken to be in h.

Endpoint output: MRT last of Cn1cc(-c2ccccc2)c(-c2cn(C)c(=O)c3[nH]c(-c4cnn(C(F)(F)F)c4)cc23)cc1=O [Compound A] . Value? 7.59

====

assay: Rat PK study #3 (ABBV-744 IV 1 mg/kg and PO 5 mg/kg); type: in vivo, SD rats; settings: male, Sprague-Dawley, rat, plasma, iv, 1 mg/kg, SD rats, IV 1 mg/kg, DMSO/PEG-400/Milli-Q water formulation, individual animals
recorded-metric: AUC(0-t) (ng·h/mL)
Answer in ng·h/mL, number only, no unit symbol.

May I ask what AUC(0-t) has been recorded for CCNC(=O)c1cc2c(-c3cc(C(C)(C)O)ccc3Oc3c(C)cc(F)cc3C)cn(C)c(=O)c2[nH]1 ? 633

====

Assay: Dog PK study #3 (Compound A PO once daily 5 days, 5/10/20 mg/kg; PK, body weight, hematology)
Assay type: in vivo, beagle dogs
Conditions: male, beagle, dog, plasma, po, 20 mg/kg, Day 5, 20 mg/kg dose PO; mean; read-out: T½ (converted)
Description: For the third dog pharmacokinetic study, three solutions of different concentrations of Compound A were prepared in 5% DMSO/15% PEG-400/80% (10% VE-TPGS) as outlined in Table 2E. […] Body weight was recorded prior to dosing, and detailed clinical observations were made prior to dosing and throughout the study, as needed. […] The concentration of Compound A in the blood plasma was determined through LC-MS as previously described. […] The cell composition (hematology) of blood samples was analyzed at day 5. […]
recorded-metric: half-life (days)
Express the result in days but write the number alone.

What value of half-life has been reported for the following compound? Cn1cc(-c2ccccc2)c(-c2cn(C)c(=O)c3[nH]c(-c4cnn(C(F)(F)F)c4)cc23)cc1=O 13.9

====

assay: Dog PK study #3 (Compound A PO once daily 5 days, 5/10/20 mg/kg; PK, body weight, hematology); assay type: in vivo, beagle dogs; conditions: male, beagle, dog, plasma, po, 10 mg/kg, Day 1, 10 mg/kg dose PO; mean
recorded-metric: Tmax (h)
Numeric only. Scale: h

Suppose we examine the molecule Cn1cc(-c2ccccc2)c(-c2cn(C)c(=O)c3[nH]c(-c4cnn(C(F)(F)F)c4)cc23)cc1=O ; what Tmax value has been reported? 3

====

assay: Dog PK study #3 (Compound A PO once daily 5 days, 5/10/20 mg/kg; PK, body weight, hematology); type: in vivo, beagle dogs; conditions: male, beagle, dog, plasma, po, 5 mg/kg, Day 5, 5 mg/kg dose PO; individual animals; read-out: MRT0-inf
recorded-metric: MRT inf
Reply with the number, then its unit.

Need MRT inf, item Cn1cc(-c2ccccc2)c(-c2cn(C)c(=O)c3[nH]c(-c4cnn(C(F)(F)F)c4)cc23)cc1=O 20 h
